Cited source: the RNAGym collection of RNA variant scans (doi:10.1101/gr.219683.116)

B1: mRNA-splicing (parent)
chain: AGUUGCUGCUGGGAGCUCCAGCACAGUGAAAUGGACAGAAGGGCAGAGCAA

Variants of: B1
Test: exon inclusion enrichment index; higher = more inclusion; WT1 exon 5 minigene, HEK293
// thresholds for exon inclusion enrichment index classes: A: < 0.3; B: ≥ 0.3 and < 2; C: ≥ 2

## Task Tag the class for AGUUUCUUUUGGGAGCUCCAGCACAGUGAAAUGGACAGAAGGGCACUGCAA [G5U G8U C9U G46C A47U]
## Result A
